System: TNF release
Experiment: TNF assay: TNF release from LPS-stimulated human PBMCs (TNF ELISA)
Assay type: cell-based
Conditions: PBMC; human PBMCs; compounds 2 hours before LPS (10 ng/ml) for 18 hours; supernatant TNF ELISA; read-out: IC50 (TNF assay)
Protocol: 25k THP1-NF-κB-LUC cells were dispensed into 384 well plate (per well). Cells were treated with compounds with various concentrations for 2 hours before addition of LPS (10 ng/mL) for 18 hours. Secreted luciferase activity were measured using quant-luc reagents (1 bag of luc reagent dilute to 40 mL, use 10 μL per well). Data were normalized to vehicle control and graphed. Compound IC50 towards inhibiting NF-κB were determined through Prism. […]
pIC50: −log10 of the molar value.
Entries annotated with measured pIC50

O=c1[nH]ccc2cc(S(=O)(=O)c3cccc(F)c3)ccc12 [BC19520]; < 5.00
Cc1ccc([S+]([O-])c2cnccc2O)c(C)c1 (stereo not drawn) [BC19458]; < 5.00
CCC1Oc2c(cc(Br)cc2S(=O)(=O)NCCc2ccc(OC(F)(F)F)cc2)NC1=O (stereo not drawn) [BC19376]; < 5.00
Cc1ccc(NS(=O)(=O)c2cc3c(cc2Cl)NC(=O)C(C)O3)cc1 (stereo not drawn) [BC19717]; < 5.00
COc1ccc(NS(=O)(=O)c2cc3c(cc2Br)NC(=O)C(CC(C)C)O3)cc1Cl (stereo not drawn) [BC19780]; < 5.00

I am curious: what pIC50 value has been reported for CCC1Oc2c(cc(Br)cc2S(=O)(=O)Nc2ccc(Cl)cc2)N(C)C1=O (stereo not drawn) [BC19929] ? 5.00 to 6.00

Item: COc1ccc(NS(=O)(=O)c2cc(Br)cc3c2OCC(=O)N3)cc1Cl [BC19171] < 5.00

Another molecule to look at: CNc1cccc2cc(S(=O)(=O)c3ccccc3)cnc12 [BC19325] 5.00 to 6.00

Follow-up entry: CCC1Oc2c(cc(Br)cc2S(=O)(=O)Nc2ccc(C(C)C)cc2)N(C)C1=O (stereo not drawn) [BC19933] 5.00 to 6.00

Cited source: patent US12606528B2
